Target: T1, recombinant human IL-27 (human, UniProt Q14213 21-229; Q8NEV9 29-243)
T1 construct: Bought from R&D Systems (Cat. 2526-IL); also called hIL-27; rhIL-27
T1 sequence 1: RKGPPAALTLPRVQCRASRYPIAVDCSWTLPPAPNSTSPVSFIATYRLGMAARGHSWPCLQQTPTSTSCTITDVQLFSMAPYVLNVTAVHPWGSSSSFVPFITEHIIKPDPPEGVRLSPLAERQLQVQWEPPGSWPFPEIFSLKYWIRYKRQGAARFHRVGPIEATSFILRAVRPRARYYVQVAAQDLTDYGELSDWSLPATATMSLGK
T1 sequence 2: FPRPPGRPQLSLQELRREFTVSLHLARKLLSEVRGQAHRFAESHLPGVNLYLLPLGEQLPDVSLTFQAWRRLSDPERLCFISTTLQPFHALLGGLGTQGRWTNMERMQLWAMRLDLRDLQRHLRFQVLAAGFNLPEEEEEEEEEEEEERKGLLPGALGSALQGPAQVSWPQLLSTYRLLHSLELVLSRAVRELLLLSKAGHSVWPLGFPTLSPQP
Test: SPR (Biacore T200), hIL-27 on CM5 chip, single cycle, 1:1 model
Description: The antibodies were further characterized by surface plasmon resonance (SPR). Kinetic experiments were performed on a Biacore T200 (GE Healthcare, Uppsala, Sweden). […] The association phase for the three injections of increasing concentrations of antibody was monitored for 75 seconds each time and a single dissociation phase was measured for 250 seconds following the last injection of antibody. […]

[
  {
    "binder": "Ab7.3 (antibody, human IgG1, kappa, V domains shown, human IgG1/kappa) VH: EVKLVESGGGLVQPGGSLRLSCAASGFTFTSYSMSWVRQAPGKGLEWVAYISYDGGSAYYPDTVKGRFTISRDNSKKTLYLQMSSLKSEDTAMYYCARHGDYDDDDAMDYWGQGTSVTVSS VL: DIQMTQSPASLSASVGETVTITCRASENIYSYLAWYQQKQGKSPQLLVYNAETLTEGVPSRFSGSGSGTQFSLKINSLQPEDFGNYYCQHHYGTPLTFGAGTKLDLKR",
    "kon": "1.5e+06 M⁻¹ s⁻¹"
  },
  {
    "binder": "Ab7.8 (antibody, human IgG1, kappa, V domains shown, human IgG1/kappa) VH: EVQLVESGGGLVQPGGSLRLSCAASGFTFTSYSMSWVRQAPGKGLEWVAYISYDGGSAYYPDTVKGRFTISRDNSKNTLYLQMSSLKSEDTAMYYCARHGDYDDDDAMDYWGQGTLVTVSS VL: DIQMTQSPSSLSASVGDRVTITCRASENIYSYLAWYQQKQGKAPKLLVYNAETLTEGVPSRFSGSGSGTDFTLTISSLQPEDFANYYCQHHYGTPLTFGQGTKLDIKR",
    "kon": "1.3e+06 M⁻¹ s⁻¹"
  },
  {
    "binder": "Ab7.4 (antibody, human IgG1, kappa, V domains shown, human IgG1/kappa) VH: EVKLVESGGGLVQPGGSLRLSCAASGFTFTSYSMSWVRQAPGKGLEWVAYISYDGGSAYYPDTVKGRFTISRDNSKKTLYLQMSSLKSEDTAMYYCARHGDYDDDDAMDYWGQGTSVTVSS VL: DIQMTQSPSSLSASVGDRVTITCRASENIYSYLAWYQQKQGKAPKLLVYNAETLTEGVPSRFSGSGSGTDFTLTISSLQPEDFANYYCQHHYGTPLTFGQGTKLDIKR",
    "kon": "1.5e+06 M⁻¹ s⁻¹"
  },
  {
    "binder": "Ab7.2 (antibody, human IgG1, kappa, V domains shown, human IgG1/kappa) VH: EVKLVESGGGLVQPGGSLKLFCAASGFTFTSYSMSWVRQTPEKRLEWVAYISYDGGSAYYPDTVKGRFSISRDNAKKTLYLQMSSLKSEDTAMYYCARHGDYDDDDAMDYWGQGTSVTVSS VL: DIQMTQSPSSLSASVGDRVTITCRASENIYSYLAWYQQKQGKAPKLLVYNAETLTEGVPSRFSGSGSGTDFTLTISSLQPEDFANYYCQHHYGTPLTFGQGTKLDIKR",
    "kon": "1.5e+06 M⁻¹ s⁻¹"
  },
  {
    "binder": "Ab7.22 (antibody, human IgG1, kappa, V domains shown, human IgG1/kappa) VH: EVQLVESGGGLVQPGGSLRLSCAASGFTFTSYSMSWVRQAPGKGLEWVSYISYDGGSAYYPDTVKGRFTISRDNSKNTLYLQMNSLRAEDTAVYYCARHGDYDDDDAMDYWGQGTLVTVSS VL: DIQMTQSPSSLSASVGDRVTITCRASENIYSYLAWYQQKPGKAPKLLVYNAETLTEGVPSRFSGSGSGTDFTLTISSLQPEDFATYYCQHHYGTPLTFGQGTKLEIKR",
    "kon": "1.3e+06 M⁻¹ s⁻¹"
  },
  {
    "binder": "Ab7.14 (antibody, human IgG1, kappa, V domains shown, human IgG1/kappa) VH: EVKLVESGGGLVQPGGSLRLSCAASGFTFTSYSMSWVRQAPGKGLEWVAYISYDGGSAYYPDTVKGRFTISRDNSKKTLYLQMNSLRAEDTAVYYCARHGDYDDDDAMDYWGQGTLVTVSS VL: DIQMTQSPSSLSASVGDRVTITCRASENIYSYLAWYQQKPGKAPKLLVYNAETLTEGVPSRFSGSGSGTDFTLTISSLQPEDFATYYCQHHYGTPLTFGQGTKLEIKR",
    "kon": "1.5e+06 M⁻¹ s⁻¹"
  },
  {
    "binder": "Ab7.5 (antibody, human IgG1, kappa, V domains shown, human IgG1/kappa) VH: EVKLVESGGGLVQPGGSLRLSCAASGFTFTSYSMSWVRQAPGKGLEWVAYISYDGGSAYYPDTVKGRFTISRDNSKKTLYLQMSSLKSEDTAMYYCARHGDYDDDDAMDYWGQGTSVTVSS VL: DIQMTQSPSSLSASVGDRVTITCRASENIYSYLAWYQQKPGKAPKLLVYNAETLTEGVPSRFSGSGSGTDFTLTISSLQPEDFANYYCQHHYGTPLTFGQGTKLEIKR",
    "kon": "1.5e+06 M⁻¹ s⁻¹"
  },
  {
    "binder": "Ab7.10 (antibody, human IgG1, kappa, V domains shown, human IgG1/kappa) VH: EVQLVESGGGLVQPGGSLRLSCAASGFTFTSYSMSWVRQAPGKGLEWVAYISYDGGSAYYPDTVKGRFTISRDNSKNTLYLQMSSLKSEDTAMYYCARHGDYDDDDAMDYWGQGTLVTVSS VL: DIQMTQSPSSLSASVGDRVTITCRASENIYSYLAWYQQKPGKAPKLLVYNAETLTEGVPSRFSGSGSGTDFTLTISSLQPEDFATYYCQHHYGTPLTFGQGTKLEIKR",
    "kon": "1.3e+06 M⁻¹ s⁻¹"
  }
]
